Assay: Acute toxicity in mice, intraperitoneal, deaths counted 48 hours after treatment (Litchfield-Wilcoxon)
Set-up: species or system Swiss I.C.R. albino mice
Conditions: mouse, in vivo, ip, deaths at 48 hours, Litchfield-Wilcoxon test
attribute measured: LD50 at 48 h (mg/kg)

{"compound": "CCC(=O)O[C@](Cc1ccccc1)(c1ccccc1)[C@H](C)CN(C)C [Dextropropoxyphene, dextropropoxyphene]", "obs value": 140}
